quantity kind: melting point

Incoming: Find the recorded melting point belonging to O=c1c(C2Nc3ccc(Cl)cc3CO2)coc2ccccc12 (stereo not drawn) and report it.
Outgoing: 141 to 143 °C

Incoming: Which measured melting point value corresponds to CCCCc1nc(Cl)c(C2Nc3ccccc3CO2)[nH]1 (stereo not drawn) ?
Outgoing: 80 to 82 °C

Incoming: Dear colleague, I am looking for the recorded melting point of the following compound: Oc1ccc(C2Nc3ccccc3CO2)cc1 (stereo not drawn)
Outgoing: 160 to 162 °C

Incoming: # query: melting point of entry Cc1ccc2c(c1)COC(c1coc3ccccc3c1=O)N2 (stereo not drawn)
Outgoing: 202 to 204 °C

Incoming: State the recorded melting point for this entry: O=c1c(C2Nc3ccccc3CO2)coc2ccccc12 (stereo not drawn)
Outgoing: 142 to 144 °C

Incoming: Look up melting point: Oc1ccc(C2Nc3cc(Cl)ccc3CO2)cc1 (stereo not drawn)
Outgoing: 139 to 141 °C

----------
Target: Porcine pancreatic α-amylase (Sus scrofa, UniProt P00690)
Sequence (P00690 16-511): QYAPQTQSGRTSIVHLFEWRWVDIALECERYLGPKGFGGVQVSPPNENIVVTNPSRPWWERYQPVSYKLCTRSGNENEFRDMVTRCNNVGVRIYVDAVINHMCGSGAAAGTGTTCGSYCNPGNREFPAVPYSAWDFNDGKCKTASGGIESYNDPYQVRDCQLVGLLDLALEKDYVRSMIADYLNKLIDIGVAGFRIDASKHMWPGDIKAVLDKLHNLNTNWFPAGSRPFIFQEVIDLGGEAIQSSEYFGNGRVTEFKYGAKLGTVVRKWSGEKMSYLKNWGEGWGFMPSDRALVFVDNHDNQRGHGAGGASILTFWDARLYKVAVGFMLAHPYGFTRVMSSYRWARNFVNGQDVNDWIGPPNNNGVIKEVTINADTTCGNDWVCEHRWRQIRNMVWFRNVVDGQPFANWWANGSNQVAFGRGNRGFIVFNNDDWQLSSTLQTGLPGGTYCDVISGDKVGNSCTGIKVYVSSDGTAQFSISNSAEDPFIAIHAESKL
pIC50: −log10 of the molar value.
quantity kind: pIC50

Incoming: Name the reported pIC50 value associated with the compound Cc1ccc2c(c1)COC(c1c(-c3ccccc3)[nH]c3ccccc13)N2 (stereo not drawn)
Outgoing: 4.75

Incoming: Tell me the measured pIC50 of O=c1c(C2Nc3ccccc3CO2)coc2ccccc12 (stereo not drawn) , please.
Outgoing: 4.63

Incoming: If you can, please state the reported pIC50 value of Clc1ccc2c(c1)NC(c1c[nH]c3ccccc13)OC2 (stereo not drawn) .
Outgoing: 4.58

Incoming: Which pIC50 value belongs to Oc1ccc(C2Nc3cc(Cl)ccc3CO2)cc1 (stereo not drawn) ?
Outgoing: 4.96

----------
molecular target: rat intestinal sucrase (Rattus norvegicus, UniProt P23739)
Sequence (P23739 whole entry): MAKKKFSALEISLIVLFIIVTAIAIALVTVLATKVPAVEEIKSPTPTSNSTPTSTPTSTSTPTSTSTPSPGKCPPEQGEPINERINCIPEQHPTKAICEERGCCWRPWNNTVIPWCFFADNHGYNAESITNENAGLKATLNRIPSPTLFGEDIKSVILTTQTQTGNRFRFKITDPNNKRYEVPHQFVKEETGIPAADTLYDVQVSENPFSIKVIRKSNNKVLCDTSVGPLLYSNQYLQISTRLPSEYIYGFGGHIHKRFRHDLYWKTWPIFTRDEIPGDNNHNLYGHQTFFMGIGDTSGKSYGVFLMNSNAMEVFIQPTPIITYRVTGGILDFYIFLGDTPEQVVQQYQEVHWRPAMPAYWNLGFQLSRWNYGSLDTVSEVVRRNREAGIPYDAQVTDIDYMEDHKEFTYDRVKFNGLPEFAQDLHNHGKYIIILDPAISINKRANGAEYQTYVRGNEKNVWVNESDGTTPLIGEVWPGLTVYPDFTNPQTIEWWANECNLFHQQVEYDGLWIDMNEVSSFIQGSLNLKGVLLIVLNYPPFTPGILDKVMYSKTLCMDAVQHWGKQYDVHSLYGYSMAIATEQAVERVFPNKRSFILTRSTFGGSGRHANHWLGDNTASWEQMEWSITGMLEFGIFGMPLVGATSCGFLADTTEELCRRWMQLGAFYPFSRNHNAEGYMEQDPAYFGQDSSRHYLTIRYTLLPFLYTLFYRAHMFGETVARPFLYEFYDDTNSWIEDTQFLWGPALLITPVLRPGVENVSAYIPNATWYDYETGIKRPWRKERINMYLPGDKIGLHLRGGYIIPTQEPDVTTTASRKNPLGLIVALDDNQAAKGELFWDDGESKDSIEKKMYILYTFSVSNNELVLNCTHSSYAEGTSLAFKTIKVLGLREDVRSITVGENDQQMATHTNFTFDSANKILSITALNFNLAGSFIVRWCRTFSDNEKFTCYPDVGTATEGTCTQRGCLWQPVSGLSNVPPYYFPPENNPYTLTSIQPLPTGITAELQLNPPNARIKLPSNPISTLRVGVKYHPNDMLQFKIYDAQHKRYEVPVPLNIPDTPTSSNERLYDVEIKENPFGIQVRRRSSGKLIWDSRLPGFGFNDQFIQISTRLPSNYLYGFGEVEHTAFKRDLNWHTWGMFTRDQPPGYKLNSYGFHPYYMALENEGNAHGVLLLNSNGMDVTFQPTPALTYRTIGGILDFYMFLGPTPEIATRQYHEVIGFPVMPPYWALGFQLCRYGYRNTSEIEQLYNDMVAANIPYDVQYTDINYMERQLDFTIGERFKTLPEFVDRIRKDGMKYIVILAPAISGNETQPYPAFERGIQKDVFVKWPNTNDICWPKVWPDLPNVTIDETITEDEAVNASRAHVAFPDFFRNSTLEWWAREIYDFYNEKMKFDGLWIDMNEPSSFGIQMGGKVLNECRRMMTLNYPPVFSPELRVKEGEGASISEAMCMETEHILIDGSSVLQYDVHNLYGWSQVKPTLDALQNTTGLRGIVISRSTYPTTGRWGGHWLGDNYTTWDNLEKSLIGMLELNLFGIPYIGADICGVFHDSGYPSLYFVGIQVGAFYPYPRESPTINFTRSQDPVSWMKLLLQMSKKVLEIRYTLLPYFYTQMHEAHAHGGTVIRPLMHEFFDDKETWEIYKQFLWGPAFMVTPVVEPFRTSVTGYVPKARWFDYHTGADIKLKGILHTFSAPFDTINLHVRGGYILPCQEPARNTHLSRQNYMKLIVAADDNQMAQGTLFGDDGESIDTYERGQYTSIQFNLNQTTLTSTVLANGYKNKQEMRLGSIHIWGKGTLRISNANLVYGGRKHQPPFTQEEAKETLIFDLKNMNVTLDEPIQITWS
quantity kind: pIC50
// pIC50: -log10(molar conc.)

Incoming: Observed pIC50 on rat intestinal sucrase (Rattus norvegicus, UniProt P23739) for Oc1ccc(C2Nc3cc(Cl)ccc3CO2)cc1 (stereo not shown) , please.
Outgoing: 4.70

----------
biological target: α-Glucosidase (Saccharomyces cerevisiae, UniProt P53341)
Sequence (P53341 whole entry): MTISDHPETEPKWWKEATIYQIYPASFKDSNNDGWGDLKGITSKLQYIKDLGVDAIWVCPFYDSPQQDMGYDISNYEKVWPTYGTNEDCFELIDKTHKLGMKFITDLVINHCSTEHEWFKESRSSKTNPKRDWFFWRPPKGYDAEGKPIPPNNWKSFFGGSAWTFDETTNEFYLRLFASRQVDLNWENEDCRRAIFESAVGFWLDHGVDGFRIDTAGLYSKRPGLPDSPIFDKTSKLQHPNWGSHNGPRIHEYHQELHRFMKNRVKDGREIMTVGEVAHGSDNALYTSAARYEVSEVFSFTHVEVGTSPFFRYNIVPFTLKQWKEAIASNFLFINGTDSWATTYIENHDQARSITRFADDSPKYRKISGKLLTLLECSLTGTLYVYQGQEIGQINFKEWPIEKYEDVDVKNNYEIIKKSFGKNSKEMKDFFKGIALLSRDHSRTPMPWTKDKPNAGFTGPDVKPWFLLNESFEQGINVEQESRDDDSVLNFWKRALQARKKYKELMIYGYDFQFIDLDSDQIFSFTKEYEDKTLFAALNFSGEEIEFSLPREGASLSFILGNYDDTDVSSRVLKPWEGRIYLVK
pIC50: −log10 of the molar value.
quantity kind: pIC50

Incoming: Request the reported pIC50 associated with O=c1c(C2Nc3ccc(Cl)cc3CO2)coc2ccccc12 (stereo not drawn)
Outgoing: 4.50

Incoming: Please report the recorded pIC50 for Oc1ccc(C2Nc3ccccc3CO2)cc1 (stereo not drawn) .
Outgoing: 4.77

Incoming: Any idea what pIC50 was measured for Cc1ccc2c(c1)COC(c1c(C)[nH]c3ccccc13)N2 (stereo not drawn) ?
Outgoing: 4.62

Incoming: Need pIC50 of Oc1ccc(C2Nc3cc(Cl)ccc3CO2)cc1 (stereo not drawn) , thanks.
Outgoing: 4.94

Incoming: Consider the compound Cc1ccc2c(c1)COC(c1c(-c3ccccc3)[nH]c3ccccc13)N2 (stereo not drawn) and give its measured pIC50.
Outgoing: 4.69
